# Study target: human GPR119 (Homo sapiens, UniProt Q8TDV5)
# Construct: expression vector for human GPR119 cDNA (Acc. No. NP_848566); Min-6/hGPR119
# Run description: AlphaScreen cAMP assay in MIN6 cells stably transfected with human GPR119
# Recorded conditions: Min-6/hGPR119 cells, 45 min at room temperature
pEC50: −log10 of the molar value.
Readout: pEC50

Some entries whose results are on file:
1) CN(CC#N)C(=O)c1ccc(-c2ncc(C(=O)N(C3CC3)C3CCN(C(=O)OC(C)(C)C)CC3)cn2)c(F)c1 [Example 140]	6.36
2) CC(C)(C)OC(=O)N1CCC(N(C(=O)c2cnc(-c3ccc(C(=O)N4CC(F)(F)C4)cc3)nc2)C2CC2)CC1 [Example 187]	6.91
3) CC(C)(C)OC(=O)N1CCC(N(C(=O)c2cnc(-c3ccc(C(=O)NCc4ccccn4)c(F)c3)nc2)C2CC2)CC1 [Example 105]	6.84
4) CC(C)(C)OC(=O)N1CCC(N(C(=O)c2cnc(-c3ccc(C(=O)NCCOC(F)(F)F)cc3)nc2)C2CC2)CC1 [Example 227]	6.79
5) CC(C)(C)OC(=O)N1CCC(N(C(=O)c2coc(-c3ccc(S(C)(=O)=O)c(F)c3)n2)C2CC2)CC1 [Example 28]	6.80
6) CC(C)(C)OC(=O)N1CCC(N(C(=O)c2ncc(-c3cnco3)cn2)C2CC2)CC1 [Example 7]	5.92

I: CC(C)(C)OC(=O)N1CCC(N(C(=O)c2coc(-c3ccc(C#N)cc3F)n2)C2CC2)CC1 [Example 23]
II: CN(CC(C)(C)O)C(=O)c1ccc(-c2ncc(C(=O)N(C3CC3)C3CCN(C(=O)OC(C)(C)C)CC3)cn2)cc1 [Example 223]
III: CC(C)(C)OC(=O)N1CCC(N(C(=O)c2cc(-c3ccc(C#N)c(F)c3)on2)C2CC2)CC1 [Example 40]
[Q] Sort by pEC50, descending. Output spec: a listing of the labels in the requested order.
[A] III, I, II
(III: 8.15, I: 7.74, II: 6.20)

P: CCOc1ccc(-c2ncc(C(=O)N(C3CC3)C3CCN(C(=O)OC(C)C)CC3)cn2)cn1 [Example 59]
Q: CC(C)(C)OC(=O)N1CCC(N(C(=O)c2cnc(-c3ccc(C(=O)N4CCC[C@@H]4C#N)cc3)nc2)C2CC2)CC1 [Example 245]
[Q] Which has the higher pEC50, P or Q ? Your choice should be expressed through its label.
[A] P
(P: 6.78, Q: 6.49)

P: CCNC(=O)c1ccc(-c2ncc(C(=O)N(C3CC3)C3CCN(C(=O)OC(C)(C)C)CC3)cn2)cc1 [Example 86]
Q: CC(C)(C)OC(=O)N1CCC(N(C(=O)c2cnc(-c3ccc(C(=O)N4CCCC4CO)cc3)nc2)C2CC2)CC1 (stereo not shown) [Example 242]
[Q] Which has the higher pEC50, P or Q ? Your choice should be expressed through its label.
[A] P
(P: 6.77, Q: 6.23)

a: CC(C)(C)OC(=O)N1CCC(N(C(=O)c2ncc(-c3ccc(CC#N)cc3)cn2)C2CC2)CC1 [Example 67]
b: CN(Cc1cccnc1)C(=O)c1ccc(-c2ncc(C(=O)N(C3CC3)C3CCN(C(=O)OC(C)(C)C)CC3)cn2)cc1F [Example 127]
[Q] Which has the higher pEC50, a or b ? Your choice should be expressed through its label.
[A] b

---

# Study target: mutant form of the human GPR119 receptor (Homo sapiens, UniProt Q8TDV5, S329A/T327A)
# Run description: LANCE cAMP-384 assay in HEK293 cells stably expressing a mutant form of the human GPR119 receptor
# Recorded conditions: mutant human GPR119, LANCE cAMP-384 Kit, 20 min at 37° C., read-out: EC50 (cAMP accumulation)
Documented EC50 across a set of molecules
Reply numerically in nM, unit not repeated.

Some entries whose results are on file:
1) Cc1nnnn1-c1ccc(C(=O)N(C2CC2)C2CCN(C(=O)OC(C)C)CC2F)cn1 (single isomer, unassigned) [Example 249]	146
2) Cc1nccn1-c1ncc(C(=O)N(C2CC2)C2CCN(C(=O)OC(C)C)CC2)cn1 [Example 256]	265

Now consider a different molecule.
[Q] I would be grateful if you could share the reported EC50 for Cc1nccn1-c1cnc(C(=O)N(C2CC2)C2CCN(C(=O)OC(C)C)CC2)cn1 [Example 254] .
[A] 518

---

# Study target: human GPR119 (Homo sapiens, UniProt Q8TDV5)
# Construct: expression vector for human GPR119 cDNA (Acc. No. NP_848566); Min-6/hGPR119
# Sequence (Q8TDV5 1-335): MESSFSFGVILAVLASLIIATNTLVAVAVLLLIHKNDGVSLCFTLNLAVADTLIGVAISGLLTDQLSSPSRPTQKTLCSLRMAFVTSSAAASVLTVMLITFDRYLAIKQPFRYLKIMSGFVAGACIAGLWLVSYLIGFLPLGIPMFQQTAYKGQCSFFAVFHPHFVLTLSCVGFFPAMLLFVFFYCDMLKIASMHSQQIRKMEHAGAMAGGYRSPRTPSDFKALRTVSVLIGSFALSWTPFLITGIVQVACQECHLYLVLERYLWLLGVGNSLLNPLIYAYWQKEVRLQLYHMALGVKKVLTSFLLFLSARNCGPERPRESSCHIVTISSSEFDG
# Run description: AlphaScreen cAMP assay in MIN6 cells stably transfected with human GPR119
# Recorded conditions: Min-6/hGPR119 cells, 45 min at room temperature
Readout: EC50 (nM)

Some entries whose results are on file:
1. CC(C)(C)OC(=O)N1CCC(N(C(=O)c2cnc(-c3ccc(N4CCOCC4)cc3)nc2)C2CC2)CC1	140
2. CC(C)(C)OC(=O)N1CCC(N(C(=O)c2ccc(-c3cccc([N+](=O)[O-])c3)o2)C2CC2)CC1	786
3. Cc1nccn1-c1ncc(C(=O)N(C2CC2)C2CCN(C(=O)OC(C)C)CC2)cn1	129
4. CN(Cc1ccncc1)C(=O)c1ccc(-c2ncc(C(=O)N(C3CC3)C3CCN(C(=O)OC(C)(C)C)CC3)cn2)cc1F	263
5. COCC1CCCCN1C(=O)c1ccc(-c2ncc(C(=O)N(C3CC3)C3CCN(C(=O)OC(C)(C)C)CC3)cn2)cc1 (stereo not shown)	319

a: CC(C)(C)OC(=O)N1CCC(N(C(=O)c2cnc(-c3ccc(C(=O)Nc4ccc(O)cc4)c(F)c3)nc2)C2CC2)CC1
b: COCC(C)N(C)C(=O)c1ccc(-c2ncc(C(=O)N(C3CC3)C3CCN(C(=O)OC(C)(C)C)CC3)cn2)cc1F (stereo not shown)
[Q] Which has the higher EC50, a or b ? Your choice should be expressed through its label.
[A] a

1: Cc1c(C(=O)N(C2CC2)C2CCN(C(=O)OC(C)(C)C)CC2)noc1-c1ccc(C#N)cc1F
2: CC(C)(C)OC(=O)N1CCC(N(C(=O)c2cnc(-c3ccc(C(=O)N4CCC(C#N)C4)c(F)c3)nc2)C2CC2)CC1 (stereo not shown)
3: CC(C)(C)OC(=O)N1CCC(N(C(=O)c2ccc(-c3cnco3)nc2)C2CC2)CC1
4: CC(C)(C)OC(=O)N1CCC(N(C(=O)c2cnc(-c3ccc(C(=O)NC[C@H]4CCCC[C@H]4O)c(F)c3)nc2)C2CC2)CC1 (stereo in doubt)
5: COc1ccc(NC(=O)c2ccc(-c3ncc(C(=O)N(C4CC4)C4CCN(C(=O)OC(C)(C)C)CC4)cn3)c(F)c2)c(OC)c1
[Q] Sort by EC50, descending. Output spec: a listing of the labels in the requested order.
[A] 2, 4, 5, 3, 1
(2: 405 nM, 4: 261 nM, 5: 168 nM, 3: 62 nM, 1: 3 nM)

I: CC(C)(C)OC(=O)N1CCC(N(C(=O)c2cnc(-c3ccc(S(N)(=O)=O)cc3)nc2)C2CC2)CC1
II: CC(C)(C)OC(=O)N1CCC(N(C(=O)c2cnc(-c3ccc(S(C)(=O)=O)cc3)nc2)C2CC2)CC1
III: Cc1cnn(-c2ncc(C(=O)N(C3CC3)C3CCN(C(=O)OC(C)(C)C)CC3)cn2)c1
IV: CC(C)(C)OC(=O)N1CCC(N(C(=O)c2cnc(-c3ccc(C(=O)NCc4cocn4)c(F)c3)nc2)C2CC2)CC1
V: COc1cccc(-c2ncc(C(=O)N(C3CC3)C3CCN(C(=O)OC(C)(C)C)CC3)cn2)c1
[Q] # ascending order, key=EC50 Output spec: a listing of the labels in the requested order.
[A] II, IV, III, I, V
(II: 75 nM, IV: 123 nM, III: 229 nM, I: 349 nM, V: 1010 nM)

---

# Study target: human GPR119 (Homo sapiens)
# Construct: expression vector for human GPR119 cDNA (Acc. No. NP_848566); Min-6/hGPR119
# Run description: AlphaScreen cAMP assay in MIN6 cells stably transfected with human GPR119
# Recorded conditions: Min-6/hGPR119 cells, 45 min at room temperature
pEC50: −log10 of the molar value.
Readout: pEC50

1. Cc1nccn1-c1ncc(C(=O)N(C2CC2)C2CCN(C(=O)OC(C)(C)C)CC2)cn1	7.43

I: CC(C)OC(=O)N1CCC(N(C(=O)c2ccc(-c3ccc(S(C)(=O)=O)cc3)nc2)C2CC2)CC1
II: CC(C)(CO)CNC(=O)c1ccc(-c2ncc(C(=O)N(C3CC3)C3CCN(C(=O)OC(C)(C)C)CC3)cn2)c(F)c1
III: Cc1c(C(=O)N(C2CC2)C2CCN(C(=O)OC(C)(C)C)CC2)noc1-c1ccc(C#N)cc1
IV: CC(C)(C)OC(=O)N1CCC(N(C(=O)c2cnc(-c3ccc(S(C)(=O)=O)c(F)c3)o2)C2CC2)CC1
V: CC(C)(C)OC(=O)N1CCC(N(C(=O)c2noc(-c3ccc(C#N)cc3F)n2)C2CC2)CC1
[Q] Sort by pEC50, descending. Output spec: a listing of the labels in the requested order.
[A] V, III, IV, I, II

1: COC[C@H]1CCCN1C(=O)Cc1ccc(-c2ncc(C(=O)N(C3CC3)C3CCN(C(=O)OC(C)(C)C)CC3)cn2)cc1
2: CC(C)OC(=O)N1CCC(N(C(=O)c2cnc(-c3ccc(S(C)(=O)=O)cc3)nc2)C2CC2)CC1
[Q] Which has the higher pEC50, 1 or 2 ? Your choice should be expressed through its label.
[A] 2
(2: 6.92, 1: 6.51)

a: CC(C)(C)OC(=O)N1CCC(N(C(=O)c2cnc(-c3cnco3)nc2)C2CC2)CC1
b: CN(CCC#N)C(=O)c1ccc(-c2ncc(C(=O)N(C3CC3)C3CCN(C(=O)OC(C)(C)C)CC3)cn2)cc1
[Q] Param metric = pEC50; output whichever of a , b has the minimum value. Your choice should be expressed through its label.
[A] b
(b: 6.34, a: 6.65)

P: COc1ccc(NC(=O)c2ccc(-c3ncc(C(=O)N(C4CC4)C4CCN(C(=O)OC(C)(C)C)CC4)cn3)c(F)c2)cn1
Q: CC(C)(C)OC(=O)N1CCC(N(C(=O)c2cnc(-c3ccc(C(=O)NCc4ccncc4)c(F)c3)nc2)C2CC2)CC1
R: CC(C)(C)OC(=O)N1CCC(N(C(=O)c2cnc(-c3ccc(C(=O)Nc4ccn[nH]4)cc3)nc2)C2CC2)CC1
S: CC(C)(C)OC(=O)N1CCC(N(C(=O)c2ncn(-c3ccc(C#N)cc3)n2)C2CC2)CC1
[Q] Sort by pEC50, descending. Output spec: a listing of the labels in the requested order.
[A] Q, R, P, S
(Q: 7.00, R: 6.74, P: 6.52, S: 6.30)

A: COCCN(C)C(=O)c1ccc(-c2ncc(C(=O)N(C3CC3)C3CCN(C(=O)OC(C)(C)C)CC3)cn2)cc1F
B: CC(C)(C)OC(=O)N1CCC(N(C(=O)c2cnc(-c3ccc(C(=O)NCCn4ccc(C5CC5)n4)cc3)nc2)C2CC2)CC1
[Q] Param metric = pEC50; output whichever of A , B has the minimum value. Your choice should be expressed through its label.
[A] B
(B: 6.43, A: 6.64)

1: CC(C)(C)OC(=O)N1CCC(N(C(=O)c2coc(-c3ccc(S(C)(=O)=O)cc3F)n2)C2CC2)CC1
2: CC(C)(C)OC(=O)N1CCC(N(C(=O)c2cnc(-c3ccc(C(=O)NCCn4ccc(C5CC5)n4)c(F)c3)nc2)C2CC2)CC1
3: CC(C)(C)OC(=O)N1CCC(N(C(=O)c2cnc(-c3ccncc3)nc2)C2CC2)CC1
[Q] Sort by pEC50, descending. Output spec: a listing of the labels in the requested order.
[A] 3, 1, 2

A: CC(C)(C)OC(=O)N1CCC(N(C(=O)c2ccc(-c3ccc(S(C)(=O)=O)cc3)nc2)C2CC2)CC1
B: Cc1nc(CNC(=O)c2ccc(-c3ncc(C(=O)N(C4CC4)C4CCN(C(=O)OC(C)(C)C)CC4)cn3)cc2F)cs1
[Q] Param metric = pEC50; output whichever of A , B has the minimum value. Your choice should be expressed through its label.
[A] B

1: COCC(C)N(C)C(=O)c1ccc(-c2ncc(C(=O)N(C3CC3)C3CCN(C(=O)OC(C)(C)C)CC3)cn2)cc1 (centres unmarked)
2: Cc1cc(C(=O)N(C2CC2)C2CCN(C(=O)OC(C)(C)C)CC2)cnc1-c1cnco1
[Q] Param metric = pEC50; output whichever of 1 , 2 has the minimum value. Your choice should be expressed through its label.
[A] 2
(2: 6.13, 1: 6.65)
